# System: RKO p27 or p21 induced (arrested) colon adenocarcinoma cells
# assay comment: Alamar Blue cell viability assay, RKO p27 or p21 induced (arrested)
# Format: cell-based
# condition summary: Homo sapiens, RKOp27, Table B2, cells arrested by Ponasterone A, 72 hours, read-out: −log EC50 RKO p27 or p21 induced (arrested) (converted)
Reported EC50 is given for each of the following compounds.

Please review the following examples before continuing.
C[C@@]12Cc3c([nH]c4ccc(Cl)cc34)[C@@H](c3cccc(O)c3)N1C(=O)N(CCNC1CCC1)C2=O (racemic) [Example 103] ... ≥ 3160 nM
COc1ccc2[nH]c3c(c2c1)C[C@@]1(C)C(=O)N(CCCNCC(F)F)C(=O)N1[C@@H]3c1cccc(O)c1 (racemic) [Example 142] ... ≥ 316 nM
COc1ccc2[nH]c3c(c2c1)C[C@@]1(C)C(=O)N(CCCCl)C(=O)N1[C@@H]3c1cccc(O)c1 (racemic) [Example 55] ... ≥ 316 nM
CCNCCCN1C(=O)N2[C@H](c3cccc(O)c3)c3[nH]c4ccc(Cl)cc4c3C[C@@]2(C)C1=O (racemic) [Example 131] ... ≥ 316 nM
CN(CCO)CCN1C(=O)N2[C@H](c3cccc(O)c3)c3[nH]c4ccc(Cl)cc4c3C[C@@]2(C)C1=O (racemic) [Example 126] ... ≥ 316 nM
C#CCNCCN1C(=O)N2[C@H](c3cccc(O)c3)c3[nH]c4ccc(Cl)cc4c3C[C@@]2(C)C1=O (racemic) [Example 127] ... ≥ 316 nM
COc1ccc2[nH]c3c(c2c1)C[C@@]1(C)C(=O)N(CCCNCC2CC2)C(=O)N1[C@@H]3c1cccc(O)c1 (racemic) [Example 95] ... ≥ 3160 nM
C=CCNCCN1C(=O)N2[C@H](c3cccc(O)c3)c3[nH]c4ccc(Cl)cc4c3C[C@@]2(C)C1=O (racemic) [Example 115] ... ≥ 316 nM
CC(C)(C)NCCN1C(=O)N2[C@H](c3cccc(O)c3)c3[nH]c4ccc(Cl)cc4c3C[C@@]2(C)C1=O (racemic) [Example 97] ... ≥ 3160 nM
CC(=O)N1CCN(CCN2C(=O)N3[C@H](c4cccc(O)c4)c4[nH]c5ccc(Cl)cc5c4C[C@@]3(C)C2=O)CC1 (racemic) [Example 114] ... ≥ 316 nM

Please turn your attention to the following entry.
Returns the measured EC50 for the input compound. Input: C[C@@]12Cc3c([nH]c4ccc(Cl)cc34)[C@@H](c3cccc(O)c3)N1C(=O)N(CCNC1CC1)C2=O (racemic) [Example 102] ≥ 3160 nM

###

# Tested on: RKO p27 uninduced (proliferating) colon adenocarcinoma cells
# assay comment: Alamar Blue cell viability assay, RKO p27 uninduced (proliferating)
# Assay type: cell-based
# condition summary: Homo sapiens, RKOp27, Table B1, anti-proliferative/cytotoxic activity, 72 hours, read-out: −log EC50 RKO p27 uninduced (proliferating) (converted)
endpoint name: EC50

COc1ccc2[nH]c3c(c2c1)C[C@@]1(C)C(=O)N(CCNCC2CC2)C(=O)N1[C@@H]3c1cccc(O)c1 (racemic) ... ≤ 39.8 nM

# input compound: CC(C)NCCN1C(=O)N2[C@H](c3cccc(O)c3)c3[nH]c4ccc(Cl)cc4c3C[C@@]2(C)C1=O (racemic) ; wanted: its EC50 ≤ 39.8 nM

// lookup EC50 for CNCCN1C(=O)N2[C@H](c3cccc(O)c3)c3[nH]c4ccc(Cl)cc4c3C[C@@]2(C)C1=O (racemic) ≤ 39.8 nM

Report EC50 for COc1ccc2[nH]c3c(c2c1)C[C@@]1(C)C(=O)N(CCN(C)C)C(=O)N1[C@@H]3c1cccc(O)c1 (racemic) [Example 7] please. ≤ 39.8 nM

Entry under review: COc1ccc2[nH]c3c(c2c1)C[C@@]1(C)C(=O)N(CCNCC(C)C)C(=O)N1[C@@H]3c1cccc(O)c1 (racemic) . Reported EC50? ≤ 39.8 nM

I am curious: what EC50 value has been reported for CCNCCN1C(=O)N2[C@H](c3cccc(O)c3)c3[nH]c4ccc(Cl)cc4c3C[C@@]2(C)C1=O (racemic) ? ≤ 39.8 nM

Any idea what EC50 was measured for COc1ccc2[nH]c3c(c2c1)C[C@@]1(C)C(=O)N(CCNC(C)C)C(=O)N1[C@@H]3c1cccc(O)c1 (racemic) ? ≤ 39.8 nM

// query EC50 value for entry CNCCN1C(=O)N2[C@H](c3cccc(O)c3)c3[nH]c4ccc(OC)cc4c3C[C@@]2(C)C1=O (racemic) ≤ 39.8 nM

# EC50 lookup, item CCOc1ccc2[nH]c3c(c2c1)C[C@@]1(C)C(=O)N(CCNC)C(=O)N1[C@@H]3c1cccc(O)c1 (racemic) ≤ 39.8 nM

Fill in: EC50 of COc1ccc2[nH]c3c(c2c1)C[C@@]1(C)C(=O)N(CCCN(C)C)C(=O)N1[C@@H]3c1cccc(O)c1 (racemic) is ___ ≤ 39.8 nM

Quick check: EC50 of COc1ccc2[nH]c3c(c2c1)C[C@@]1(C)C(=O)N(CCN2CCN(C(C)=O)CC2)C(=O)N1[C@@H]3c1cccc(O)c1 (racemic) ? 39.8 to 251 nM

// lookup EC50 for CC[C@@]12Cc3c([nH]c4ccc(OC)cc34)[C@@H](c3cccc(O)c3)N1C(=O)N(CCN(C)C)C2=O (racemic) ≤ 39.8 nM
